- measured on: PDZ2 domain of human tyrosine phosphatase 1E (hPTP1E) (Homo sapiens)
- Construct: the constructs used for the PDZ2 domain of human tyrosine phosphatase 1E; polyhistidine (N); made in house; host or cells: Escherichia coli BL21 (DE3)
- assay method text: 2D [1H,15N]-HSQC chemical shift perturbation titration
- Assay type: binding
- condition details: 30 μM 15N PDZ2; range over residues; pH 6.8, 298 K; read-out: [1H,15N]-HSQC–CSP KD range of all residues showing chemical shift perturbation
pKd: −log10 of the molar value. Residues, ends and D or L forms follow the SMILES beside them.
quantity name: pKd

compound: CC(C)[C@H](NC(=O)[C@H](C)NC(=O)[C@H](CO)NC(=O)[C@@H](NC(=O)[C@H](CCC(N)=O)NC(=O)[C@@H](N)Cc1c[nH]c2ccccc12)C(C)C)C(=O)O [WQVSAV] (H-WQVSAV-OH)
pKd: 3.55 to 4.70
--
compound: CC(C)[C@H](NC(=O)[C@H](C)NC(=O)[C@H](CO)NC(=O)[C@@H](NC(=O)[C@H](CCC(N)=O)NC(=O)[C@H](CCC(=O)O)NC(=O)[C@@H](N)Cc1c[nH]c2ccccc12)C(C)C)C(=O)O [WEQVSAV] (H-WEQVSAV-OH)
pKd: 4.15 to 5.00
--
compound: CC(C)[C@H](NC(=O)[C@H](C)NC(=O)[C@H](CO)NC(=O)[C@@H](NC(=O)[C@@H](N)CCC(N)=O)C(C)C)C(=O)O [QVSAV] (H-QVSAV-OH)
pKd: 3.12 to 4.05
--
compound: CC(C)[C@H](NC(=O)[C@H](C)NC(=O)[C@H](CO)NC(=O)[C@@H](NC(=O)[C@@H](N)Cc1c[nH]c2ccccc12)C(C)C)C(=O)O [WVSAV] (H-WVSAV-OH)
pKd: 3.40 to 4.30

The record that follows has no pKd shown yet.
Quick one: pKd of CC(C)[C@H](NC(=O)[C@H](C)NC(=O)[C@H](CO)NC(=O)[C@@H](N)Cc1c[nH]c2ccccc12)C(=O)O [WSAV] (H-WSAV-OH) ?
2.40 to 3.70

###

- measured on: PDZ2 domain of human tyrosine phosphatase 1E (hPTP1E) (Homo sapiens)
- Construct: the constructs used for the PDZ2 domain of human tyrosine phosphatase 1E; polyhistidine (N); made in house; host or cells: Escherichia coli BL21 (DE3)
- Sequence (Q12923 1368-1452 limits assumed): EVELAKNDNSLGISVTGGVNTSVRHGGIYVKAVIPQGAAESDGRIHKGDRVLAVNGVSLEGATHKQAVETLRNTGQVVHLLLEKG
- assay method text: CIDNP-KD ligand titration (photo-CIDNP hyperpolarized NMR)
- Assay type: binding
- condition details: tryptophan Hβ signal; 20 μM PDZ2 for WSAV, 10 μM for others; 25 μM fluorescein, 450 nm; 50 mM NaCl, 20 mM KPO4, 10% D2O, pH 6.8, 298 K; single-scan, steady state; fit ± error; read-out: CIDNP-KD, Hβ
Residues, ends and D or L forms follow the SMILES beside them.
quantity name: pKd
# reply with the number alone; pKd is -log10 of concentration in mol/L

compound: CC(C)[C@H](NC(=O)[C@H](C)NC(=O)[C@H](CO)NC(=O)[C@@H](NC(=O)[C@H](CCC(N)=O)NC(=O)[C@H](CCC(=O)O)NC(=O)[C@@H](N)Cc1c[nH]c2ccccc12)C(C)C)C(=O)O [WEQVSAV] (H-WEQVSAV-OH)
measured on: PDZ2 domain of human tyrosine phosphatase 1E (hPTP1E) (Homo sapiens)
pKd: 4.09
//
compound: CC(C)[C@H](NC(=O)[C@H](C)NC(=O)[C@H](CO)NC(=O)[C@@H](NC(=O)[C@H](CCC(N)=O)NC(=O)[C@@H](N)Cc1c[nH]c2ccccc12)C(C)C)C(=O)O [WQVSAV] (H-WQVSAV-OH)
measured on: PDZ2 domain of human tyrosine phosphatase 1E (hPTP1E) (Homo sapiens)
pKd: 4.57

As a next step, examine the compound that follows.
Consider the compound CC(C)[C@H](NC(=O)[C@H](C)NC(=O)[C@H](CO)NC(=O)[C@@H](NC(=O)[C@@H](N)Cc1c[nH]c2ccccc12)C(C)C)C(=O)O [WVSAV] (H-WVSAV-OH) and give its measured pKd.
3.77
